Molecular target: the molecule itself
Assay: native gel or EMSA; purified recombinant proteins, non-reducing, non-denaturing electrophoresis (SDS- and DTT-free loading buffer), immunoblot with anti-laforin or anti-HIS antibody; self-association, monomer and dimer bands
observation type: binding result

Need binding result of wild type laforin with an amino-terminal HIS6 epitope (enzyme, human, UniProt O95278 1-331, looked up, laforin, human, 331 amino acids (EPM2A); The plasmid of the His6 constructs is not described in the methods; also called laforin-WT; WT; not shown: His6, N-terminal, kept) MRFRFGVVVPPAVAGARPELLVVGSRPELGRWEPRGAVRLRPAGTAAGDGALALQEPGLWLGEVELAAEEAAQDGAEPGRVDTFWYKFLKREPGGELSWEGNGPHHDRCCTYNENNLVDGVYCLPIGHWIEATGHTNEMKHTTDFYFNIAGHQAMHYSRILPNIWLGSCPRQVEHVTIKLKHELGITAVMNFQTEWDIVQNSSGCNRYPEPMTPDTMIKLYREEGLAYIWMPTPDMSTEGRVQMLPQAVCLLHALLEKGHIVYVHCNAGVGRSTAAVCGWLQYVMGWNLRKVQYFLMAKRPAVYIDEEALARAQEDFFQKFGKVRSSVCSL , thanks.
binds
